# SYSTEM: FSHR (Homo sapiens)
# Sequence (P23945 18-695): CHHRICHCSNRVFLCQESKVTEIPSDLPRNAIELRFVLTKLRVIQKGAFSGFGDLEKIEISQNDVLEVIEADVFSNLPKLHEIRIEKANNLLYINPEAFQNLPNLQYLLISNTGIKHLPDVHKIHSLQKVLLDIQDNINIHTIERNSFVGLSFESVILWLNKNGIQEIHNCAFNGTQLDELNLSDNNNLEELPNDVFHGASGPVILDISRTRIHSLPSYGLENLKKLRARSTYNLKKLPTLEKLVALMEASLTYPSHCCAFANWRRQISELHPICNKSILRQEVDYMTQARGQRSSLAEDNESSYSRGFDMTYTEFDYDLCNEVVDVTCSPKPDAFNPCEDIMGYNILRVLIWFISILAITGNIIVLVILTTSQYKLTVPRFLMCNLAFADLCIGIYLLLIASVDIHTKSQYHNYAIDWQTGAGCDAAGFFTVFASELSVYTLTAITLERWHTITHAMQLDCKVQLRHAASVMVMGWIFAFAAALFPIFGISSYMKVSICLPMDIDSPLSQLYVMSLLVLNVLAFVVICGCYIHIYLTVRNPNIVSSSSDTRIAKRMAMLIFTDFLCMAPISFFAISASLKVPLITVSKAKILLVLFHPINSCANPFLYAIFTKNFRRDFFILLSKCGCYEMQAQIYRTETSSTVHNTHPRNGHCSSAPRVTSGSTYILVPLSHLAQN
# TEST SUMMARY: EC50 of cyclic AMP production in CHO FSHR cells + EC20 FSH (Assay A)
# TEST SETTINGS: CHO-FSHR-LUC cells, 0.265 pM FSH (EC20), cAMP HTRF, 1 h
OBSERVATION TYPE: EC50 (µM)

cpd_smiles=COc1ccc(C2=NN(C(=O)c3cccc(OC(F)(F)F)c3)C(C)(C)C2)cc1OC system="FSHR (Homo sapiens)" observation_type=EC50 readout_number=23.8
cpd_smiles=COc1ccc(C2=NN(C(=O)c3cccc(Cl)c3)C(C)(C)C2)cc1OC system="FSHR (Homo sapiens)" observation_type=EC50 readout_number=27.1
cpd_smiles=COc1ccc(C2=NN(C(=O)c3ccc4c(c3)OCO4)CC2)cc1OC system="FSHR (Homo sapiens)" observation_type=EC50 readout_number=40.3
cpd_smiles=COc1ccc(C2=NN(C(=O)c3cccc(Br)c3)C(C)(C)C2)cc1OC system="FSHR (Homo sapiens)" observation_type=EC50 readout_number=27.8
cpd_smiles=Cn1ccc2cc(C3=NN(C(=O)c4cccc(F)c4)CC3)ccc21 system="FSHR (Homo sapiens)" observation_type=EC50 readout_number=4.5
cpd_smiles=COc1ccc(C2=NN(C(=O)c3ccc(Cl)cc3)C(C)(C)C2)cc1OC system="FSHR (Homo sapiens)" observation_type=EC50 readout_number=35.2
cpd_smiles=COc1ccc(C2=NN(C(=O)c3cccc(C)c3)C(C)(C)C2)cc1OC system="FSHR (Homo sapiens)" observation_type=EC50 readout_number=38.7
cpd_smiles=COc1ccc(C2=NN(C(=O)Cc3cccc(F)c3)CC2)cc1OC system="FSHR (Homo sapiens)" observation_type=EC50 readout_number=31
cpd_smiles=COc1ccc(C2=NN(C(=O)c3ccc(C(F)(F)F)c(F)c3)CC2)cc1OC system="FSHR (Homo sapiens)" observation_type=EC50 readout_number=5.7
